species: Mus musculus; test: Anticonvulsant activity in C57BL/6 mouse 6 Hz seizure model at 32 mA measured after 1 hr; assay type: functional
attribute measured: ED50 (mg/kg)
The answer is to be given in mg/kg; state only the numeric part.

Query `CC[C@H](C(N)=O)N1CCCC1=O` yields ED50 of 41.5

# ED50 (molecule: `CCOC(=O)Nc1ccc(NCc2ccc(F)cc2)cc1N` ) is 65.9

Data point: `C#CCN(Cc1ccc(F)cc1)c1cc(C)c(NC(=O)OC)c(C)c1` ; ED50 = 16.8

----------
test: AUC(0 to t) in Kunming mouse plasma at 2 mg/kg, iv measured upto 24 hrs by LC-MS/MS method; format: ADME, organism-based; parameters: time < 24 hrs, dose 2 mg/kg, route iv
attribute measured: AUC(0-t) at 24 h (ng·h/mL)
Dear colleague, please return just the value in ng·h/mL, with no unit written.

# AUC(0-t) at 24 h of `C#CCN(Cc1ccc(F)cc1)c1cc(C)c(NC(=O)OC)c(C)c1` = 531

Source of measurements: ChEMBL document CHEMBL5149984
